The measured values listed here are drawn from patent EP1379283B1.

target: vasopressin-1 receptor of rat liver cell membranes (rat) (UniProt P30560); test: competition with 3H-vasopressin-1 antagonist on rat liver membranes, metallopeptide at 1 µM
Sequence (P30560 whole entry): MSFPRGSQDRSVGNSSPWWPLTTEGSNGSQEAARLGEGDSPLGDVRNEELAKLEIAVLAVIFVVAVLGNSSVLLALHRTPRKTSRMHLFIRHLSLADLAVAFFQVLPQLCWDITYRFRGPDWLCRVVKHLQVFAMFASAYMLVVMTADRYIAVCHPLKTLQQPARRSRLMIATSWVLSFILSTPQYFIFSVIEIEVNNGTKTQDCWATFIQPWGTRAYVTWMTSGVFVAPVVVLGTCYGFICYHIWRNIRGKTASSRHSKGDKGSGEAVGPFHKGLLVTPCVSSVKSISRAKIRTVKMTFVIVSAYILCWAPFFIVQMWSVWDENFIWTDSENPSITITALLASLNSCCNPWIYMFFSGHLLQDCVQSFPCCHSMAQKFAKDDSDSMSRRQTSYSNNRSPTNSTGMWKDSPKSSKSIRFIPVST
Square brackets hold non-standard residues; d marks the D form. * marks the point of attachment. Cyclohexylacetyl = O=C(CC1CCCCC1)*; Orn = NCCC[C@H](N)C(=O)O; Dap = NC[C@H](N)C(=O)O
% Inhibition at 1 µM: recorded values
# output: bare number, implied unit %

Check out these entries, answers already filled in.
binder	property	valueObserved
Cyclohexylacetyl-[dW]IT[Dap]AA[Orn]C-NH2 (numbers in words are those of the source; also: rhenium-oxo (Re(V)=O) complex at Cys9) [Re-complexed Caca-D-Trp-Ile-Thr-Dap-Ala-Ala-Orn-Cys-NH2]	% Inhibition at 1 µM	23
Cyclohexylacetyl-[dW]IT[Dap]CAP[Orn]-NH2 (not fully specified (bridges); printed as Caca-D-Trp-Ile-*Thr-Dap-Cys*-Ala-Pro-Orn-NH₂; numbers in words are those of the source; also: Cys6 complexed to rhenium-oxo (Re=O)) [Re-complexed Caca-D-Trp-Ile-Thr-Dap-Cys-Ala-Pro-Orn-NH2]	% Inhibition at 1 µM	22
Cyclohexylacetyl-[dW]IT[Dap]ACA[Orn]-NH2 (not fully specified (bridges); printed as Caca-D-Trp-Ile-Thr-*Dap-Ala-Cys*-Ala-Orn-NH₂; numbers in words are those of the source; also: Cys7 complexed to rhenium-oxo (Re=O)) [Re-complexed Caca-D-Trp-Ile-Thr-Dap-Ala-Cys-Ala-Orn-NH2]	% Inhibition at 1 µM	0

Pending binder:
Ask: Bench note: what % Inhibition at 1 µM did Cyclohexylacetyl-[dW]ICT[Dap]AP[Orn]-NH2 (not fully specified (bridges); printed as Caca-D-*Trp-Ile-Cys*-Thr-Dap-Ala-Pro-Orn-NH₂; numbers in words are those of the source; also: Cys4 complexed to rhenium-oxo (Re=O)) [Re-complexed Caca-D-Trp-Ile-Cys-Thr-Dap-Ala-Pro-Orn-NH2] show?
Result: 52
